The values you see were collected from PubChem BioAssay AID1963959.

# viability, T/C per entry
System: T-47D spheroids with HUVEC/MSC, viability
method: Anticancer human tumor T-47D cell line growth inhibition [PI3K];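 note: spheroids exposed to agents for seven days before reading; percent of DMSO vehicle control luminescence so 100% = untreated growth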
conditions: second compound 1 µM; first compound 0.1 µM; stronger effect = lower value
Could you give me the number in %? Just the number is fine.

Use these answered entries as a reference point.
CC(C)NCC(C(=O)N1CCN(c2ncnc3c2C(C)CC3O)CC1)c1ccc(Cl)cc1 (stereo unspecified) + Cc1nc(NC(=O)N2CCCC2C(N)=O)sc1-c1ccnc(C(C)(C)C(F)(F)F)c1: 82.5
CC1(C)CCC(Nc2ncc(C(F)(F)F)c(-c3c[nH]c4c(P(C)(C)=O)c(C#N)ccc34)n2)CN1 (stereo unspecified) + CC(Nc1ccc2c(c1)OCCn1cc(N3C(=O)OCC3C(F)F)nc1-2)C(N)=O: 30.8
CC(Cn1ccc(-c2ccc(C#N)c(Cl)c2)n1)NC(=O)c1cc(C(C)O)[nH]n1 (stereo unspecified) + CC(Nc1ccc2c(c1)OCCn1cc(N3C(=O)OCC3C(F)F)nc1-2)C(N)=O: 56.4
CCN1CCN(Cc2ccc(Nc3ncc(F)c(-c4cc(F)c5nc(C)n(C(C)C)c5c4)n3)nc2)CC1 + Cc1nc(NC(=O)N2CCCC2C(N)=O)sc1-c1ccnc(C(C)(C)C(F)(F)F)c1: 51.9
C=CC(=O)N1CCN(c2nc(=O)n(-c3c(C)ccnc3C(C)C)c3nc(-c4c(O)cccc4F)c(F)cc23)C(C)C1 (stereo unspecified) + COc1c(OCCCN2CCOCC2)ccc2c3n(c(=NC(=O)c4cnc(N)nc4)nc12)CCN3: 6.58
Cn1ncnc1[C@H]1c2n[nH]c(=O)c3cc(F)cc(c23)N[C@@H]1c1ccc(F)cc1 + CC(Nc1ncnc2nc[nH]c12)c1cc2cccc(Cl)c2c(=O)n1-c1ccccc1: 92.6
Cn1ncnc1[C@H]1c2n[nH]c(=O)c3cc(F)cc(c23)N[C@@H]1c1ccc(F)cc1 + CC(Nc1ccc2c(c1)OCCn1cc(N3C(=O)OCC3C(F)F)nc1-2)C(N)=O: 49.8
CCCS(=O)(=O)Nc1ccc(F)c(C(=O)c2c[nH]c3ncc(-c4ccc(Cl)cc4)cc23)c1F + CC(Nc1ccc2c(c1)OCCn1cc(N3C(=O)OCC3C(F)F)nc1-2)C(N)=O: 55.1

Noted for CC1(C)CCC(Nc2ncc(C(F)(F)F)c(-c3c[nH]c4c(P(C)(C)=O)c(C#N)ccc34)n2)CN1 (stereo unspecified) + CC(Nc1ncnc2nc[nH]c12)c1cc2cccc(Cl)c2c(=O)n1-c1ccccc1 : its viability, T/C reads 63.5

// viability, T/C lookup, molecule = CC1(C)CCC(CN2CCN(c3ccc(C(=O)NS(=O)(=O)c4ccc(NCC5CCOCC5)c([N+](=O)[O-])c4)c(Oc4cnc5[nH]ccc5c4)c3)CC2)=C(c2ccc(Cl)cc2)C1 + CC(Nc1ncnc2nc[nH]c12)c1cc2cccc(Cl)c2c(=O)n1-c1ccccc1 , result: 93.4

So for CNC(=O)c1ccc(N2C(=S)N(c3ccc(C#N)c(C(F)(F)F)c3)C(=O)C2(C)C)cc1F + CC(Nc1ncnc2nc[nH]c12)c1cc2cccc(Cl)c2c(=O)n1-c1ccccc1 , the logged viability, T/C turned out to be 87.5
